Where do these numbers come from? They come from patent US6344562B1.

measuredMetric: melting point (°C)

                                   compound  measuredmetric  assayvalue
0  O=C(O)C[C@H](NC(=O)CNC(=O)c1csc(NC(=O)NCc2ccccn2)n1)C(=O)NCc1ccccn1   melting point         164

I = CC(C)(C)OC(=O)C[C@H](NC(=O)CNC(=O)c1csc(NC(=O)NCc2ccccc2)n1)C(=O)NCc1cccnc1
II = CCOC(=O)CC(CCCNC(=O)c1csc(NC(=O)NCc2ccccc2)n1)C(=O)NCc1ccccc1 (racemic)
Would you let me know which has the greater melting point value, I or II ? Kindly state the label of the option you pick.
I
(I: 185 °C, II: 128 °C)

----------
measuredMetric: melting point (°C)

Observe how each entry below is paired with its result.
>>> df
                                   compound  assayvalue
0  CC(C)(C)OC(=O)C[C@H](NC(=O)CNC(=O)c1csc(NC(=O)NCc2ccccn2)n1)C(=O)NCc1ccccn1         112
1  CCOC(=O)CC(NC(=O)c1cc(NC(=O)c2sc(NC(=N)N)nc2C)cc(OCc2ccccc2)c1)c1ccccc1 (racemic)         116
2  CCOC(=O)CC(CCCNC(=O)c1csc(NC(=O)NCc2ccccc2)n1)c1ccccc1 (racemic)          93
3  CC(C)(C)OC(=O)C[C@H](NC(=O)CNC(=O)c1csc(NC(=O)NCc2ccccc2)n1)C(=O)Nc1ccccc1C(=O)OC(C)(C)C         116

a = CC(C)(C)OC(=O)C[C@H](NC(=O)CNC(=O)c1csc(NC(=O)NCc2ccccc2)n1)C(=O)NCc1ccccc1
b = N=C(N)Nc1ncc(C(=O)Nc2cccc(C(=O)NC(CC(=O)O)c3ccccc3)c2)s1 (racemic)
Would you mind telling me which has the lower recorded melting point between a and b ? # reply format: chosen label
a
(a: 123 °C, b: 196 °C)

----------
measuredMetric: melting point (°C)

>>> df
                                   molecule  assayvalue
0  CCOC(=O)CCNC(=O)CNC(=O)c1csc(NC(=O)NCc2ccccc2)n1         187

P = CCOC(=O)CC(NC(=O)c1cccc(NC(=O)c2cnc(NC(=N)N)s2)c1)c1ccccc1 (racemic)
Q = O=C(O)CCc1ccc(NC(=O)c2csc(NC(=O)NCc3ccccc3)n2)cc1
Hey, which is lower on measured melting point, P or Q ? Answer format: the label of the selected item.
P
(P: 149 °C, Q: 233 °C)

----------
measuredMetric: melting point (°C)

1 = COC(=O)[C@H](CCCCNC(=O)c1csc(NC(=O)NCc2ccccc2)n1)NC(=O)OC(C)(C)C
2 = CC(C)(C)OC(=O)C[C@H](NC(=O)CNC(=O)c1csc(NC(=O)NCc2ccccc2)n1)C(=O)NCc1ccccn1
// task: argmin of melting point over [ 1 , 2 ] When you have decided, please share the label of that item.
2
(2: 108 °C, 1: 166 °C)

----------
measuredMetric: melting point (°C)

                                   compound  assayvalue
0  CC(C)(C)OC(=O)CCNC(=O)c1cccc(NC(=O)c2csc(NC(=O)NCc3ccccc3)n2)c1         212

I = N=C(N)Nc1nc(C(=O)NCCCC(CC(=O)O)c2ccccc2)cs1 (racemic)
II = CCOC(=O)CC(NC(=O)c1cccc(NC(=O)c2csc(NC(=N)N)n2)c1)c1ccccc1 (racemic)
Hello, I am sorting some records. Could you say if I or II has the smaller melting point value? Answer by stating the label of the chosen item.
II
(II: 117 °C, I: 230 °C)

----------
measuredMetric: melting point (°C)

>>> df
                                   molecule  measuredmetric  assayvalue
0  O=C(O)CCCC(=O)CNC(=O)c1csc(NC(=O)NCc2ccccc2)n1   melting point         169
1  CCOC(=O)CC(CCCCNC(=O)c1sc(NC(=N)N)nc1C)c1ccccc1 (racemic)   melting point         138
2  O=C(O)C[C@H](NC(=O)CNC(=O)c1csc(NC(=O)NCc2ccccc2)n1)C(=O)Nc1ccccc1C(=O)O   melting point         192
3  Cc1nc(NC(=N)N)sc1C(=O)NCCC(=O)NCCC(=O)O.Cl.Cl   melting point         170
4  CC(C)(C)OC(=O)N[C@@H](CCCCNC(=O)c1csc(NC(=O)NCc2ccccc2)n1)C(=O)O   melting point         138

----------
Counter-ions that a name gives are not always drawn.
measuredMetric: melting point (°C)

// known answers, use as guide
                                   compound  unitofmeasure  assayvalue
0  N=C(N)Nc1nc(C(=O)NCC(=O)NC(CC(=O)O)c2cccnc2)cs1 (racemic)             °C         186
1  O=C(O)C[C@H](NC(=O)CNC(=O)c1csc(NC(=O)NCc2ccccc2)n1)C(=O)O (as salt: trifluoroacetate)             °C         183
2  CCOC(=O)CC(NC(=O)c1cccc(NC(=O)c2sc(NC(=N)N)nc2C)c1)c1ccccc1 (racemic)             °C         177
3  O=C(O)CCNC(=O)CNC(=O)c1csc(NC(=O)NCc2ccccc2)n1 (as salt: hydrochloride)             °C         174
4  O=C(O)CCCC(=O)CNC(=O)c1csc(NC(=O)NCc2ccccn2)n1 (as salt: hydrochloride)             °C         199

P = CC(C)(C)OC(=O)N[C@H](Cc1ccc(NC(=O)c2csc(NC(=O)NCc3ccccc3)n2)cc1)C(=O)O
Q = O=C(O)C(F)(F)F.O=C(O)C[C@H](NC(=O)CCCc1csc(NC(=O)NCc2ccccc2)n1)C(=O)NCc1ccccc1
Would you let me know which has the greater melting point value, P or Q ? API: response body contains the label of the selected item.
P
(P: 232 °C, Q: 159 °C)

----------
Counter-ions that a name gives are not always drawn.
measuredMetric: melting point

# count of solved cases: 3
>>> print(df.to_string())
                                   molecule  measuredmetric            assayvalue
0  CCOC(=O)CC(CCCCNC(=O)c1sc(N=C2NCCCN2)nc1C)c1ccccc1 (racemic)   melting point         137 to 139 °C
1  CCOC(=O)CC(NC(=O)CNC(=O)c1csc(NC(=N)N)n1)c1ccccc1 (racemic)   melting point  177 to 178 °C (dec.)
2  O=C(O)C[C@H](NC(=O)CNC(=O)c1csc(NC(=O)NCc2ccccc2)n1)C(=O)N[C@H](C(=O)O)c1ccccc1 (as salt: trifluoroacetate)   melting point         126 to 130 °C

Input CCOC(=O)CC(NC(=O)CCNC(=O)c1csc(NC(=N)N)n1)c1ccccc1 (racemic) . Output melting point: 85 to 87 °C

Reported melting point of `CCOC(=O)CCNC(=O)CCNC(=O)c1csc(NC(=N)N)n1` : 154 to 157 °C

Note to self: melting point recorded for CC(C)[C@H](NC(=O)[C@H](CC(=O)O)NC(=O)CNC(=O)c1csc(NC(=O)NCc2ccccc2)n1)C(=O)O (as salt: trifluoroacetate) was 93 to 98 °C

Per the records, this molecule ( N=C(N)Nc1nc(C(=O)NCCC(=O)NC(CC(=O)O)c2ccccc2)cs1 (racemic) ) has melting point equal to 105 to 107 °C (dec.)

----------
Where a name gives a salt, the structure may show the parent alone.
measuredMetric: melting point

Example entries and their recorded answers appear below.
>>> print(df.to_string())
                                   molecule  measuredmetric            assayvalue
0  CCOC(=O)CC(NC(=O)c1ccc(OC)c(NC(=O)c2sc(NC(=N)N)nc2C)c1)c1ccccc1 (racemic)   melting point         123 to 126 °C
1  CCCCCc1nc(NC(=N)N)sc1-c1cccc(NC(=O)CC(CC(=O)O)c2ccccc2)c1 (racemic)   melting point  186 to 188 °C (dec.)

In plain terms, CCCc1nc(NC(=N)N)sc1-c1cccc(NC(=O)CC(CC(=O)O)c2ccccc2)c1 (racemic) has a documented melting point of 245 to 247 °C (dec.)

Reported melting point for CCOC(=O)CC(CC(=O)CNC(=O)c1csc(NC(=O)NCc2ccccc2)n1)C(=O)OCC (racemic) (as salt: succinate) was 126 to 129 °C

Lookup result for CCc1nc(NC(=N)N)sc1-c1cccc(NC(=O)CC(CC(=O)O)c2ccccc2)c1 (racemic) (as salt: salt) ; measured melting point: 186 to 188 °C

For Cl.Cl.O=C(O)CC(NC(=O)CNC(=O)c1csc(N=C2NCCN2)n1)c1cccnc1 (centres unmarked) the molecule record lists melting point as 170 to 172 °C

So for N=C(N)Nc1nc(C(=O)NCC(=O)NC(CC(=O)O)c2ccccc2)cs1 (racemic) (as salt: hydrochloride) , the logged melting point turned out to be 202 to 205 °C
